Assay: in vivo
Settings: SD, rat, iv, 1 mg/kg
Measured Property: clearance (mL/min/kg)
Quick reminder: number only, in mL/min/kg, skip the unit.

O=C(O)[C@H]1C2CCC(CC2)[C@@H]1Nc1cc(-c2ccco2)nc(-c2c[nH]c3nc(F)ccc23)n1 [Example 73] ... 0.681

-- ask Entry under review: O=C(O)C1C2CCC(CC2)C1Nc1cc(-c2ccccc2)nc(-c2c[nH]c3ncc(F)cc23)n1 (racemic) [Example 4] . Reported clearance?
-- reply 3.66

-- ask Check O=C(O)C1C2CCC(CC2)C1Nc1cc(-c2cc3ccccc3s2)nc(-c2c[nH]c3ncc(F)cc23)n1 (racemic) [Example 17] too.
-- reply 6.62

-- ask Check O=C(O)C1C2CCC(CC2)C1Nc1cc(-c2cccc3c2oc2ccccc23)nc(-c2c[nH]c3ncc(F)cc23)n1 (racemic) [Example 18] too.
-- reply 5.3

---

Vd values by entry
Assay: in vivo
Settings: SD, rat, iv, 1 mg/kg
Quick reminder: number only, in L/kg, skip the unit.

Cc1nc2[nH]cc(-c3nc(NC4C5CCC(CC5)C4C(=O)O)cc(-c4ccccc4)n3)c2cc1F (racemic) ... 1.5

-- ask Entry under review: O=C(O)C1C2CCC(CC2)C1Nc1cc(-c2cc3ccccc3s2)nc(-c2c[nH]c3ncc(F)cc23)n1 (racemic) . Reported Vd?
-- reply 1.49

-- ask Check O=C(O)C1C2CCC(CC2)C1Nc1cc(C2CC2)nc(-c2c[nH]c3ncc(F)cc23)n1 (racemic) too.
-- reply 0.551

-- ask Check O=C(O)C1C2CCC(CC2)C1Nc1nc(-c2c[nH]c3ncc(F)cc23)nc2ccccc12 (racemic) too.
-- reply 1.03

-- ask Check O=C(O)C1C2CCC(CC2)C1Nc1cc(-c2ccccc2)nc(-c2c[nH]c3ncc(F)cc23)n1 (racemic) too.
-- reply 0.412

---

Experiment: in vivo
Details: SD, rat, po, 5 mg/kg
Measured Property: AUC(0-t) (ng·h/mL)
Quick reminder: number only, in ng·h/mL, skip the unit.

Below: 4 compounds and their reported AUC(0-t).
O=C(O)C1C2CCC(CC2)C1Nc1cc(C2CC2)nc(-c2c[nH]c3ncc(F)cc23)n1 (racemic) ... 8310
O=C(O)C1C2CCC(CC2)C1Nc1cc(-c2cc3ccccc3s2)nc(-c2c[nH]c3ncc(F)cc23)n1 (racemic) ... 8270
O=C(O)C1C2CCC(CC2)C1Nc1nc(-c2c[nH]c3ncc(F)cc23)nc(C#Cc2ccccc2)c1F (racemic) ... 15300
CC(C)(C)[C@@H](CC(=O)O)Nc1nc(-c2c[nH]c3ncc(F)cc23)nc(-c2ccco2)c1F ... 10400

-- ask Entry under review: O=C(O)C1C2CCC(CC2)C1Nc1nc(-c2c[nH]c3ncc(F)cc23)nc2c1CCCC2 (racemic) . Reported AUC(0-t)?
-- reply 8080

-- ask Check O=C(O)[C@H]1C2CCC(CC2)[C@@H]1Nc1cc(-c2ccco2)nc(-c2c[nH]c3nc(F)ccc23)n1 too.
-- reply 50600

-- ask Check Cc1nc2[nH]cc(-c3nc(NC4C5CCC(CC5)C4C(=O)O)cc(-c4ccccc4)n3)c2cc1F (racemic) too.
-- reply 10100

-- ask Check O=C(O)C1C2CCC(CC2)C1Nc1cc(-c2ccccc2)nc(-c2c[nH]c3ncc(F)cc23)n1 (racemic) too.
-- reply 12800

-- ask Check O=C(O)C1C2CCC(CC2)C1Nc1nc(-c2c[nH]c3ncc(F)cc23)nc2ccccc12 (racemic) too.
-- reply 10100

-- ask Check O=C(O)C1C2CCC(CC2)C1Nc1cc(-c2ccco2)nc(-c2c[nH]c3ncc(F)cc23)n1 (racemic) too.
-- reply 17400

-- ask Check Cn1ccc2c(NC3C4CCC(CC4)C3C(=O)O)nc(-c3c[nH]c4ncc(F)cc34)nc21 (racemic) too.
-- reply 12000

-- ask Check O=C(O)C1C2CCC(CC2)C1Nc1cc(-c2cccc3c2oc2ccccc23)nc(-c2c[nH]c3ncc(F)cc23)n1 (racemic) too.
-- reply 6840

---

Tmax values by entry
Experiment: in vivo
Details: SD, rat, po, 5 mg/kg
Quick reminder: number only, in min, skip the unit.

Below: 5 molecules and their reported Tmax.
O=C(O)[C@H]1C2CCC(CC2)[C@@H]1Nc1cc(-c2ccco2)nc(-c2c[nH]c3nc(F)ccc23)n1 [Example 73] ... 90
Cn1ccc2c(NC3C4CCC(CC4)C3C(=O)O)nc(-c3c[nH]c4ncc(F)cc34)nc21 (racemic) [Example 65] ... 25
O=C(O)C1C2CCC(CC2)C1Nc1nc(-c2c[nH]c3ncc(F)cc23)nc2ccccc12 (racemic) [Example 1] ... 50
O=C(O)C1C2CCC(CC2)C1Nc1cc(-c2ccco2)nc(-c2c[nH]c3ncc(F)cc23)n1 (racemic) [Example 9] ... 30
O=C(O)C1C2CCC(CC2)C1Nc1cc(-c2cc3ccccc3s2)nc(-c2c[nH]c3ncc(F)cc23)n1 (racemic) [Example 17] ... 30

-- ask Entry under review: O=C(O)C1C2CCC(CC2)C1Nc1nc(-c2c[nH]c3ncc(F)cc23)nc(C#Cc2ccccc2)c1F (racemic) [Example 63] . Reported Tmax?
-- reply 120

-- ask Check O=C(O)C1C2CCC(CC2)C1Nc1nc(-c2c[nH]c3ncc(F)cc23)nc2c1CCCC2 (racemic) [Example 2] too.
-- reply 25

---

Assay: in vivo
Conditions: SD, rat, iv, 1 mg/kg
Measured Property: half-life (h)
Quick reminder: number only, in h, skip the unit.

Below: 3 molecules and their reported half-life.
O=C(O)C1C2CCC(CC2)C1Nc1cc(-c2cc3ccccc3s2)nc(-c2c[nH]c3ncc(F)cc23)n1 (racemic) ... 1.12
Cn1ccc2c(NC3C4CCC(CC4)C3C(=O)O)nc(-c3c[nH]c4ncc(F)cc34)nc21 (racemic) ... 0.965
O=C(O)C1C2CCC(CC2)C1Nc1cc(-c2cccc3c2oc2ccccc23)nc(-c2c[nH]c3ncc(F)cc23)n1 (racemic) ... 4.37

-- ask Entry under review: O=C(O)C1C2CCC(CC2)C1Nc1nc(-c2c[nH]c3ncc(F)cc23)nc(C#Cc2ccccc2)c1F (racemic) . Reported half-life?
-- reply 3.85

-- ask Check O=C(O)C1C2CCC(CC2)C1Nc1nc(-c2c[nH]c3ncc(F)cc23)nc2c1CCCC2 (racemic) too.
-- reply 1.06

-- ask Check O=C(O)C1C2CCC(CC2)C1Nc1cc(C2CC2)nc(-c2c[nH]c3ncc(F)cc23)n1 (racemic) too.
-- reply 2.01

-- ask Check O=C(O)C1C2CCC(CC2)C1Nc1nc(-c2c[nH]c3ncc(F)cc23)nc2ccccc12 (racemic) too.
-- reply 1.13

-- ask Check Cc1nc2[nH]cc(-c3nc(NC4C5CCC(CC5)C4C(=O)O)cc(-c4ccccc4)n3)c2cc1F (racemic) too.
-- reply 1.53

-- ask Check O=C(O)C1C2CCC(CC2)C1Nc1cc(-c2ccccc2)nc(-c2c[nH]c3ncc(F)cc23)n1 (racemic) too.
-- reply 2.71

-- ask Check O=C(O)[C@H]1C2CCC(CC2)[C@@H]1Nc1cc(-c2ccco2)nc(-c2c[nH]c3nc(F)ccc23)n1 too.
-- reply 1.41

-- ask Check CC(C)(C)[C@@H](CC(=O)O)Nc1nc(-c2c[nH]c3ncc(F)cc23)nc(-c2ccco2)c1F too.
-- reply 0.542

-- ask Check O=C(O)C1C2CCC(CC2)C1Nc1cc(-c2ccco2)nc(-c2c[nH]c3ncc(F)cc23)n1 (racemic) too.
-- reply 1.52

---

Test: in vivo
Details: SD, rat, iv, 1 mg/kg
Measured Property: AUC(0-t) (ng·h/mL)
Quick reminder: number only, in ng·h/mL, skip the unit.

Below: 3 compounds and their reported AUC(0-t).
CC(C)(C)[C@@H](CC(=O)O)Nc1nc(-c2c[nH]c3ncc(F)cc23)nc(-c2ccco2)c1F [Example 61] ... 4030
O=C(O)C1C2CCC(CC2)C1Nc1nc(-c2c[nH]c3ncc(F)cc23)nc2ccccc12 (racemic) [Example 1] ... 4960
O=C(O)[C@H]1C2CCC(CC2)[C@@H]1Nc1cc(-c2ccco2)nc(-c2c[nH]c3nc(F)ccc23)n1 [Example 73] ... 24200

-- ask Entry under review: O=C(O)C1C2CCC(CC2)C1Nc1cc(-c2ccco2)nc(-c2c[nH]c3ncc(F)cc23)n1 (racemic) [Example 9] . Reported AUC(0-t)?
-- reply 7260

---

Assay: in vivo
Conditions: SD, rat, iv, 1 mg/kg
Measured Property: Vd (L/kg)
Quick reminder: number only, in L/kg, skip the unit.

Below: 5 compounds and their reported Vd.
O=C(O)C1C2CCC(CC2)C1Nc1nc(-c2c[nH]c3ncc(F)cc23)nc(C#Cc2ccccc2)c1F (racemic) ... 0.416
O=C(O)[C@H]1C2CCC(CC2)[C@@H]1Nc1cc(-c2ccco2)nc(-c2c[nH]c3nc(F)ccc23)n1 ... 0.212
CC(C)(C)[C@@H](CC(=O)O)Nc1nc(-c2c[nH]c3ncc(F)cc23)nc(-c2ccco2)c1F ... 0.585
O=C(O)C1C2CCC(CC2)C1Nc1cc(-c2cccc3c2oc2ccccc23)nc(-c2c[nH]c3ncc(F)cc23)n1 (racemic) ... 0.598
Cn1ccc2c(NC3C4CCC(CC4)C3C(=O)O)nc(-c3c[nH]c4ncc(F)cc34)nc21 (racemic) ... 0.168

-- ask Entry under review: O=C(O)C1C2CCC(CC2)C1Nc1cc(-c2ccco2)nc(-c2c[nH]c3ncc(F)cc23)n1 (racemic) . Reported Vd?
-- reply 0.551

-- ask Check O=C(O)C1C2CCC(CC2)C1Nc1nc(-c2c[nH]c3ncc(F)cc23)nc2c1CCCC2 (racemic) too.
-- reply 1.26
